# System: Pre-adipocytes and 3T3-L1 cell
# test.details: Inhibitory effect on adipocyte differentiation (Oil-red O staining)
# Assay type: cell-based
# stated.conditions: 3T3-L1, Oil-red O staining, day 7; IC50 determined using BioDataFit 1.02; read-out: Inhibitory Activities of Isolated Compound on Adipocyte Differentiation(IC50)
observable: IC50 (µM)
// units = µM; emit number, no label

COc1cc(O)ccc1C(=O)/C=C/c1ccc(O)cc1    41.8

// next item, IC50 requested
Give reported IC50 value for C=CC(CC(=O)c1ccc(O)cc1)c1ccc(O)cc1 (stereo not shown)
326

Where do the numbers come from? From patent US8431166B2.
